molecular target: T1, recombinant human Pro-Factor D (human, UniProt P00746 20-253); experiment: sandwich ELISA: Factor D titrated (ug/ml Df) on plate-bound goat polyclonal AF1824; purified recombinant human IgG4 antibody as detection antibody; OD450
T1 construct: also used for the endogenous pro-Factor D detected in 3MC patient serum; also called pro CFD; hPro-CFD
REPORTED ENDPOINT: binding result

49G3, purified recombinant, human IgG4 (antibody, V domains shown, Mouse variable regions on human IgG4 (S228P) and human kappa constant regions) VH: QVTLKESGPGILQSSQTLSLTCSFSGISLSSSGMGVSWIRQPSGKGLEWLAHIYWDDEKHYNPSLKSRLTISKDASRNQIFLKIISVDTADTATYYCALRYYGYNYVMHYWGQGTSVTVSS VL: DVLMTQTPLSLPVSLGDQASISCRSSQSILHSNGNTYFEWYLQKPGQSPKLLIYKVSNRFSGVPDRFSGSGSGTDFTLKISRVEAEDLGVYYCFQGSHVPPTFGGGTKLEIKR = no binding
58F5, purified recombinant, human IgG4 (antibody, V domains shown, Mouse variable regions on human IgG4 (S228P) and human kappa constant regions) VH: QVTLKESGPGILQSSQTLSLTCSFSGISLNTSIMGVSWIRQPSGKGLEWLAHIYWDDEKHYNPSLKSRLTISKDASRNQVFLKIISVDTADTATYYCALRYYGYNYVMHYWGQGTSVTVSS VL: DVLMTQTPLSLPVSLGDQASISCRSSQSIVHSNGNTYLEWYLQKPGQSPKLLIYKVSNRFSGVPDRFSGSGSGTDFTLKISRVEADDLGVYYCFQGSHVPPTFGGGTKLEIKR = no binding

From: patent US20250179160A1
